Assign pIC50 to each entry below.
test system: Plasmodium falciparum 3D7 asexual blood stage; assay: microbe, parasite or virus in culture; settings: 3D7, read-out: IC50 P. falciparum 3D7 ABS, reference compound set, 11-point dose response, IA = inactive at 20 μM
# log scale: pIC50 equals minus log10 of the concentration in mol/L

For the molecule CCN(CC)CCCCCCNc1cc(OC)cc2c(C)ccnc12 [Sitamaquine, reference compound] , give its reported pIC50.
5.69

For the molecule CC(C)(C)[C@H]1CC[C@H](CC2=C(O)C(=O)c3ccccc3C2=O)CC1 [Buparvaquone, reference compound] , give its reported pIC50.
6.85

---

tested on: L. donovani MHOM/IN/80/DD8 intracellular amastigotes; test: Leishmania donovani intracellular amastigote assay in THP-1 cells; format: cell-based; details: Leishmania donovani, THP-1, read-out: IC50 L. donovani n = 2; reference compound set, second test; IA = inactive at 20 μM
VALUE_KIND: IC50

For the compound O=C(Cn1ccnc1[N+](=O)[O-])NCc1ccccc1 [Benznidazole, reference compound] , give its reported IC50.
> 20 µM

For the compound CCN(CC)CCCCCCNc1cc(OC)cc2c(C)ccnc12 [Sitamaquine, reference compound] , give its reported IC50.
> 20 µM

For the compound COC(=O)Nc1nc2ccc(C(=O)c3ccccc3)cc2[nH]1 [Mebendazole, reference compound] , give its reported IC50.
> 20 µM

For the compound CC(C)/N=c1\cc2n(-c3ccc(Cl)cc3)c3ccccc3nc-2cc1Nc1ccc(Cl)cc1 [Clofazimine, reference compound] , give its reported IC50.
> 20 µM

For the compound N=C(N)c1ccc(OCCCCCOc2ccc(C(=N)N)cc2)cc1 [Pentamidine, reference compound] , give its reported IC50.
> 20 µM

For the compound CC(=O)NC[C@H]1CN(c2ccc(N3CCOCC3)c(F)c2)C(=O)O1 [Linezolid, reference compound] , give its reported IC50.
> 20 µM

For the compound [H]/N=C(/N)N[C@H]1[C@H](O)[C@@H](O)[C@H](O[C@@H]2O[C@@H](C)[C@](O)(C=O)[C@H]2O[C@@H]2O[C@@H](CO)[C@H](O)[C@@H](O)[C@@H]2NC)[C@@H](N/C(N)=N\[H])[C@@H]1O [Streptomycin, reference compound] , give its reported IC50.
> 20 µM

For the compound OC(c1cc(C(F)(F)F)nc2c(C(F)(F)F)cccc12)C1CCCCN1 (stereo not drawn) [Mefloquine, reference compound] , give its reported IC50.
6.58 µM

For the compound CCCCCCCCCCCCCCCCOP(=O)([O-])OCC[N+](C)(C)C [Miltefosine, reference compound] , give its reported IC50.
2.26 µM
